These data points were gathered from PubChem BioAssay (NCI).

# reported TGI; entries follow
- Test system: A549 NSCLC
- method: NCI tumour cell line growth inhibition, 48 h

## Task Dear colleague, I am looking for the recorded TGI of the following compound: COc1ccc2c(c1)C=CC(C#N)N2C(=O)c1ccccc1 (stereo not given)
## Result > 100 µM

Next:
## Task Which TGI value belongs to `CCCSc1cc(Cl)nc(N)n1` ?
## Result > 100 µM

## Task Please give the result for `O=C1N[C@@H](O)[C@@H]2ON=C(c3ccccc3)[C@H]12` too.
## Result > 100 µM

## Task Okay, and `Cc1ccc2c(c1)C(=O)/C(=C\c1ccc(Cl)cc1)CCS2(=O)=O` ?
## Result > 58.8 µM

## Task Ok, now `O=C1CCn2c([nH]c3cccc4cccc2c43)=N1`
## Result > 100 µM
